Reference for the values: patent US20050014765A1

biological target: Tubulin purified from pig brains (Sus scrofa, UniProt P02550+P02554); construct: Tubulin is purified from pig brains according to published methods; assay: Assessment of the inhibition of tubulin polymerization (turbidimetry at 350 nm); conditions: concentration which inhibits the rate of polymerization by 50%; tubulin 1 mg/ml, 37° C.; read-out: Inhibition of tubulin polymerization IC 50
Sequence (P02550 whole entry): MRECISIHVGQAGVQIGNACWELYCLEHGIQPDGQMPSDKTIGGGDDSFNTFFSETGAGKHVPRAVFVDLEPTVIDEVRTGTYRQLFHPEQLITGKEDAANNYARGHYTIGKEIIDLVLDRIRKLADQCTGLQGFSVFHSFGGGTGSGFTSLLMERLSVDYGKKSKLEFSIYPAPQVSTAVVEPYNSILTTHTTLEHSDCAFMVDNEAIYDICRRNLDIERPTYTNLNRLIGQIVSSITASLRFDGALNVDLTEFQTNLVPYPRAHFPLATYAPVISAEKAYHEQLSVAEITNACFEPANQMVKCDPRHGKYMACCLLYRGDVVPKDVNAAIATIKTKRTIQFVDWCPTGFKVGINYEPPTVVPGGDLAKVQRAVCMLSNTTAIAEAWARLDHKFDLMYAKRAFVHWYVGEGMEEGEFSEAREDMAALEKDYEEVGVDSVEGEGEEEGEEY
Sequence (P02554 whole entry): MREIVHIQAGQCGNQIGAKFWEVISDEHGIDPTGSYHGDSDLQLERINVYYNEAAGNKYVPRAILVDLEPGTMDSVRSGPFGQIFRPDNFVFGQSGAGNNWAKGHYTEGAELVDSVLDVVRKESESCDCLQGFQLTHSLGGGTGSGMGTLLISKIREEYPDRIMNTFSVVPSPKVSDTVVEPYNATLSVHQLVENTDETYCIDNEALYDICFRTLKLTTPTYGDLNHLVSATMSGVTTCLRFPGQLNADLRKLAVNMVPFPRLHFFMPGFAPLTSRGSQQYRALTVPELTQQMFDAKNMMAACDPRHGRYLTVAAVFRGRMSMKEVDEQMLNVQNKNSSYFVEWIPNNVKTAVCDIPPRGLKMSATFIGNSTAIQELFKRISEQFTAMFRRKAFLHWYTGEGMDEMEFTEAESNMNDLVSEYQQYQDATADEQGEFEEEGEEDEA
Counter-ions that a name gives are not always drawn.
quantityName: IC50 (µM)

Sample records with IC50:
[[record]]
compound = "COCCNc1nc(-c2ccccc2)c(C(=O)N2CCN(c3cc(C)cc(C)c3)CC2)s1 [Example 90]"
unitofmeasurement = "µM"
reportedresult = 0.095

[[record]]
compound = "COc1cc(OC)cc(N2CCN(C(=O)c3c(-c4ccccc4)ccn3C)CC2)c1 [Example 40, hydrochloride]"
unitofmeasurement = "µM"
reportedresult = 11.2


a = COC(=O)CCn1cc(C(=O)N2CCN(c3cccc(Cl)c3)CC2)c(-c2ccccc2)c1 [Example 34]
b = COc1cc(OC)cc(N2CCN(C(=O)c3cn(Cc4cccnc4)cc3-c3ccccc3)CC2)c1 [Example 48]
Input line: Please indicate which item has the smaller measured IC50: a versus b Choose, then provide that item's label.
Output line: b
(b: 0.75 µM, a: 2.16 µM)

====

molecular target: Tubulin purified from pig brains (Sus scrofa, UniProt P02550+P02554); construct: Tubulin is purified from pig brains according to published methods; assay: Assessment of the inhibition of tubulin polymerization (turbidimetry at 350 nm); settings: concentration which inhibits the rate of polymerization by 50%; tubulin 1 mg/ml, 37° C.; read-out: Inhibition of tubulin polymerization IC 50
pIC50: −log10 of the molar value.
quantityName: pIC50

A = CC(=O)Nc1cccc(N2CCN(C(=O)c3[nH]cnc3-c3ccccc3)CC2)c1 [Example 12]
B = NC(=O)c1cccc(N2CCN(C(=O)c3sc(N)nc3-c3ccccc3)CC2)c1 [Example 85]
Input line: Kindly compare A with B and tell me which has the lower pIC50 figure. # respond with the chosen item's label
Output line: A
(A: 5.46, B: 6.16)

1 = O=C(c1[nH]c(O)nc1-c1ccccc1)N1CCN(c2cccc(CO)c2)CC1 [Example 57]
2 = N#Cc1cccc(N2CCN(C(=O)c3c[nH]cc3-c3ccccc3)CC2)c1 [Example 61]
3 = NC(=O)c1cccc(N2CCN(C(=O)c3cncn3-c3ccccc3)CC2)c1 [Example 17]
Input line: Endpoint returns the given molecules ordered by ascending pIC50. # output: labels, in the requested order
Output line: 3, 2, 1

a = O=C(c1[nH]cnc1-c1ccccc1)N1CCN(c2cccc(Cl)c2)CC1 [Example 3]
b = O=C(c1sccc1-c1ccccc1)N1CCN(c2cccc(Cl)c2)CC1 [Example 4]
c = O=C(c1[nH]cnc1-c1ccccc1)N1CCN(c2cccc(CO)c2)CC1 [Example 68]
d = COc1cc(OC)cc(N2CCN(C(=O)c3cn(CCCC(=O)O)cc3-c3ccccc3)CC2)c1 [Example 46]
Input line: # rank by pIC50, ascending (min first) Put the labels in the requested order and list them out.
Output line: d, b, a, c
(d: 5.36, b: 5.70, a: 6.00, c: 6.32)

1 = N#Cc1cccc(N2CCN(C(=O)c3[nH]cnc3-c3ccccc3)CC2)c1 [Example 14]
2 = COc1cc(OC)cc(N2CCN(C(=O)c3[nH]c(C(F)(F)F)nc3-c3ccccc3)CC2)c1 [Example 62]
3 = O=C(c1ccn(CCO)c1-c1ccccc1)N1CCN(c2cccc(CO)c2)CC1 [Example 89]
Input line: Order the records so the highest pIC50 appears first and the lowest last. The response must list the labels following the requested ordering.
Output line: 2, 1, 3

I = COc1cc(OC)cc(N2CCN(C(=O)c3[nH]c(S(C)(=O)=O)nc3-c3ccccc3)CC2)c1 [Example 67]
II = COc1cc(OC)cc(N2CCN(C(=O)c3[nH]c(C)nc3-c3ccccc3)CC2)c1 [Example 43]
Input line: Returns: the label, I or II , whose recorded pIC50 is the lower number. Give the label under which the chosen entry appears.
Output line: I
(I: 5.78, II: 6.22)

====

quantityName: melting point (°C)

Below are worked cases with known answers.
[[record]]
cpdsmiles = "Nc1nc(-c2ccccc2)c(C(=O)N2CCN(c3cccc(CO)c3)CC2)s1"
unitofmeasurement = "°C"
reportedresult = 176

[[record]]
cpdsmiles = "N#Cc1cccc(N2CCN(C(=O)c3sc(N)nc3-c3ccccc3)CC2)c1"
unitofmeasurement = "°C"
reportedresult = 246

[[record]]
cpdsmiles = "COc1cc(OC)cc(N2CCN(C(=O)c3[nH]cnc3-c3ccccc3)CC2)c1"
unitofmeasurement = "°C"
reportedresult = 196

[[record]]
cpdsmiles = "CS(=O)(=O)c1nc(-c2ccccc2)c(C(=O)N2CCN(c3cccc(C#N)c3)CC2)[nH]1"
unitofmeasurement = "°C"
reportedresult = 198


P = N#Cc1cccc(N2CCN(C(=O)c3cc[nH]c3-c3ccccc3)CC2)c1
Q = N#Cc1cccc(N2CCN(C(=O)c3[nH]c(O)nc3-c3ccccc3)CC2)c1
R = COc1cc(OC)cc(N2CCN(C(=O)c3ccn(C)c3-c3ccccc3)CC2)c1
Input line: Descending sort on melting point required. Answer with the labels in sequence, matching the requested order.
Output line: Q, R, P
(Q: 198 °C, R: 130 °C, P: 80 °C)

1 = COc1cc(OC)cc(N2CCN(C(=O)c3ccn(CCO)c3-c3ccccc3)CC2)c1
2 = NC(=O)c1cccc(N2CCN(C(=O)c3sc(N)nc3-c3ccccc3)CC2)c1
Input line: // compare measured melting point, left 1 , right 2 , return larger Output the label that corresponds to your choice.
Output line: 2
(2: 236 °C, 1: 157 °C)

1 = COc1cc(OC)cc(N2CCN(C(=O)c3[nH]c(O)nc3-c3ccccc3)CC2)c1
2 = N#Cc1cccc(N2CCN(C(=O)c3[nH]c(S)nc3-c3ccccc3)CC2)c1
Input line: Kindly compare 1 with 2 and tell me which has the lower melting point figure. Give the chosen item's label as your response.
Output line: 1
(1: 130 °C, 2: 247 °C)

====

target: Tubulin purified from pig brains (Sus scrofa, UniProt P02550+P02554); construct: Tubulin is purified from pig brains according to published methods; assay: Assessment of the inhibition of tubulin polymerization (turbidimetry at 350 nm); details: concentration which inhibits the rate of polymerization by 50%; tubulin 1 mg/ml, 37° C.; read-out: Inhibition of tubulin polymerization IC 50
quantityName: IC50 (nM)

Solved cases below.
[[record]]
compound = "O=C(c1[nH]cnc1-c1ccccc1)N1CCN(c2cccc(OC(F)F)c2)CC1"
reportedresult = 800

[[record]]
compound = "Cn1ccc(-c2ccccc2)c1C(=O)N1CCN(c2cccc(Cl)c2)CC1"
reportedresult = 12800

[[record]]
compound = "CS(=O)(=O)c1nc(-c2ccccc2)c(C(=O)N2CCN(c3cccc(C(N)=O)c3)CC2)[nH]1"
reportedresult = 13900

[[record]]
compound = "Cc1nc(-c2ccccc2)c(C(=O)N2CCN(c3cccc(C#N)c3)CC2)[nH]1"
reportedresult = 990

[[record]]
compound = "COc1cc(OC)cc(N2CCN(C(=O)c3ccn(C(C)=O)c3-c3ccccc3)CC2)c1"
reportedresult = 4000


P = Cc1nc(-c2ccccc2)c(C(=O)N2CCN(c3cccc(C(N)=O)c3)CC2)[nH]1
Q = COc1cc(OC)cc(N2CCN(C(=O)c3[nH]c([S+](C)[O-])nc3-c3ccccc3)CC2)c1 (centres unmarked)
Input line: Decide: P or Q , by lowest recorded IC50. Choose, then provide that item's label.
Output line: Q
(Q: 1950 nM, P: 4660 nM)

====

target: Tubulin purified from pig brains (Sus scrofa, UniProt P02550+P02554); construct: Tubulin is purified from pig brains according to published methods; test: Assessment of the inhibition of tubulin polymerization (turbidimetry at 350 nm); conditions: concentration which inhibits the rate of polymerization by 50%; tubulin 1 mg/ml, 37° C.; read-out: Inhibition of tubulin polymerization IC 50
pIC50: −log10 of the molar value.
quantityName: pIC50

P = COC(=O)Cn1cc(C(=O)N2CCN(c3cccc(C(N)=O)c3)CC2)c(-c2ccccc2)c1
Q = N#Cc1cccc(N2CCN(C(=O)c3cn(CO)cc3-c3ccccc3)CC2)c1
R = NC(=O)c1cccc(N2CCN(C(=O)c3ccn(CCO)c3-c3ccccc3)CC2)c1
S = COc1cc(OC)cc(N2CCN(C(=O)c3cn(C(C)=O)cc3-c3ccccc3)CC2)c1
Input line: List the 4 molecules shown above, ordered by increasing pIC50. In plain terms: list the labels in the order you were asked to.
Output line: P, R, S, Q
(P: 4.87, R: 5.44, S: 5.88, Q: 6.24)

====

target: Tubulin purified from pig brains (Sus scrofa, UniProt P02550+P02554); construct: Tubulin is purified from pig brains according to published methods; experiment: Assessment of the inhibition of tubulin polymerization (turbidimetry at 350 nm); conditions: concentration which inhibits the rate of polymerization by 50%; tubulin 1 mg/ml, 37° C.; read-out: Inhibition of tubulin polymerization IC 50
quantityName: IC50 (µM)

Completed entries (count: 3):
[[record]]
compound = "NC(=O)c1cccc(N2CCN(C(=O)c3[nH]ccc3-c3ccccc3)CC2)c1"
unitofmeasurement = "µM"
reportedresult = 12.4

[[record]]
compound = "COc1cc(OC)cc(N2CCN(C(=O)c3nc(SC)[nH]c3-c3ccccc3)CC2)c1"
unitofmeasurement = "µM"
reportedresult = 0.6

[[record]]
compound = "COc1cc(OC)c(O)c(N2CCN(C(=O)c3[nH]c([S+](C)[O-])nc3-c3ccccc3)CC2)c1 (centres unmarked)"
unitofmeasurement = "µM"
reportedresult = 19.9


a = COCCNc1nc(-c2ccccc2)c(C(=O)N2CCN(c3cc(OC)cc(OC)c3)CC2)s1
b = O=C(c1ncoc1-c1ccccc1)N1CCN(c2cccc(Cl)c2)CC1
c = Nc1nc(-c2ccccc2)c(C(=O)N2CCN(c3cccc(CO)c3)CC2)s1
d = O=C(O)CCn1cc(C(=O)N2CCN(c3cccc(Cl)c3)CC2)c(-c2ccccc2)c1
e = COc1cccc(N2CCN(C(=O)c3ccoc3-c3ccc(Cl)cc3)CC2)c1
Input line: Give the ascending ranking of the items by reported IC50. A ranking is expressed here by listing the labels in the requested order.
Output line: a, c, d, e, b
